# TESTED_SYSTEM: HLA-DR DRB4*0101 (DR53) (Homo sapiens, UniProt P01903+P13762, G164S)
# TEST_DESCRIPTION: biochemical
# Format: binding
# TEST_SETTINGS: DRB4 *0101
Readings of pIC50 for the listed compounds
pIC50 is defined as minus the log10 of a concentration measured in mol/L.

Solved entries (count: 2):
CC[C@H](C)[C@H](NC(=O)[C@@H]1CCCN1C(=O)[C@H](CC(=O)O)NC(=O)[C@@H](NC(=O)[C@@H]1CCCN1C(=O)[C@H](Cc1ccccc1)NC(=O)[C@@H](NC(=O)[C@H](CC(=O)O)NC(=O)[C@@H](NC(=O)[C@@H]1CCCN1C(=O)[C@H](CO)NC(=O)[C@@H](N)CCCNC(=N)N)[C@@H](C)CC)[C@@H](C)O)[C@@H](C)O)C(=O)N[C@@H](CCCCN)C(=O)N[C@@H](CCC(=O)O)C(=O)N[C@@H](CO)C(=O)O    6.33
CSCC[C@H](NC(=O)[C@H](CCC(=O)O)NC(=O)[C@H](CCC(N)=O)NC(=O)[C@@H]1CCCN1)C(=O)N[C@@H](CCCCN)C(=O)N[C@H](C(=O)N[C@@H](Cc1ccc(O)cc1)C(=O)N[C@@H](CO)C(=O)N[C@H](C(=O)N[C@@H](CO)C(=O)N[C@@H](Cc1ccccc1)C(=O)N[C@@H](CC(=O)O)C(=O)N[C@@H](CO)C(=O)N[C@@H](CC(C)C)C(=O)N[C@@H](Cc1ccccc1)C(=O)O)C(C)C)[C@@H](C)O    6.24

Entry CC[C@H](C)[C@H](NC(=O)[C@H](CCC(=O)O)NC(=O)[C@H](CC(N)=O)NC(=O)CNC(=O)[C@H](CC(=O)O)NC(=O)[C@H](CCC(=O)O)NC(=O)[C@H](CC(N)=O)NC(=O)[C@@H](NC(=O)[C@@H](NC(=O)[C@H](CO)NC(=O)[C@@H](NC(=O)[C@@H](N)Cc1ccc(O)cc1)[C@@H](C)CC)[C@@H](C)CC)[C@@H](C)CC)C(=O)N[C@@H](Cc1ccccc1)C(=O)N[C@@H](CC(N)=O)C(=O)N[C@H](C(=O)O)[C@@H](C)O , tested on HLA-DR DRB4*0101 (DR53) (Homo sapiens, UniProt P01903+P13762, G164S), has a reported pIC50 of 5.43

Value source: patent US20060079453A1
